Here the recorded growth is given for each entry.
- Tested on: E. coli TESEC Mtb Alr
- measurement_description: growth (OD600 after 10 h); higher = more growth (less inhibition)
- condition_notes: arabinose 100 nM; compound 0.1 mM; raw OD600 reference: median of DMSO wells 0.413, cell-free background 0.052
Where a name gives a salt, the structure may show the parent alone.
readout_type: growth

>>> value_measured("CCOC(=O)O[C@]1(C(=O)COC(=O)CC)CC[C@H]2[C@@H]3CCC4=CC(=O)C=C[C@]4(C)[C@H]3[C@@H](O)C[C@@]21C [Prednicarbate]")
0.401
>>> value_measured("CN(C)CC/C=C1/c2ccccc2COc2ccc(CC(=O)O)cc21 [Olopatadine hydrochloride]")
0.425
>>> value_measured("COC1=C(OC)C(=O)C(CCCCCCCCCCO)=C(C)C1=O [Idebenone]")
0.139
>>> value_measured("Clc1ccccc1CN1CCc2sccc2C1 [Ticlopidine hydrochloride]")
0.345
>>> value_measured("CCN(CC)C(=O)N1CCN(C)CC1 [Diethylcarbamazine citrate]")
0.411
>>> value_measured("COc1c(N2C[C@@H]3CCCN[C@@H]3C2)c(F)cc2c(=O)c(C(=O)O)cn(C3CC3)c12 [Moxifloxacin]")
0.0529
>>> value_measured("Nc1c(Br)cc(Br)cc1CN[C@H]1CC[C@H](O)CC1 [Ambroxol hydrochloride]")
0.406
>>> value_measured("CNC(=C[N+](=O)[O-])NCCSCc1csc(CN(C)C)n1 [Nizatidine]")
0.408

###

- Tested on: E. coli TESEC Alr+ wild-type control
- measurement_description: growth (OD600 after 10 h); higher = more growth (less inhibition)
- condition_notes: compound 0.1 mM; raw OD600 reference: median of DMSO wells 0.241, cell-free background 0.041
Counter-ions that a name gives are not always drawn.
Reported values of growth for individual entries
readout_type: growth

>>> value_measured("CC(C)(C)NC(=O)[C@H]1CC[C@H]2[C@@H]3CC[C@H]4NC(=O)C=C[C@]4(C)[C@H]3CC[C@]12C [Finasteride]")
0.121
>>> value_measured("C#Cc1cccc(Nc2ncnc3cc(OCCOC)c(OCCOC)cc23)c1 [Erlotinib]")
0.193
>>> value_measured("COc1cc(C(=O)OCCCN2CCCN(CCCOC(=O)c3cc(OC)c(OC)c(OC)c3)CC2)cc(OC)c1OC [Dilazep dihydrochloride]")
0.174
>>> value_measured("CC(=O)OC[C@H]1O[C@@H]([S-])[C@H](OC(C)=O)[C@@H](OC(C)=O)[C@@H]1OC(C)=O.CCP(CC)CC.[Au+] [Auranofin]")
0.0481

###

- System: E. coli TESEC Alr+ wild-type control
- measurement_description: growth (OD600 after 10 h); higher = more growth (less inhibition)
- condition_notes: compound 0.1 mM; raw OD600 reference: median of DMSO wells 0.241, cell-free background 0.041
Short version: growth at least 0.2 is 1, less is -1.

>>> category("Cc1onc(-c2ccccc2)c1C(=O)N[C@@H]1C(=O)N2[C@@H]1SC(C)(C)[C@@H]2C(=O)O [Oxacillin sodium]")
1
>>> category("COc1ncnc(NS(=O)(=O)c2ccc(N)cc2)c1OC [Sulfadoxine]")
1
>>> category("COc1cc([C@@H]2c3cc4c(cc3[C@@H](O[C@@H]3O[C@@H]5CO[C@@H](C)O[C@H]5[C@H](O)[C@H]3O)[C@H]3COC(=O)[C@H]23)OCO4)cc(OC)c1O [Etoposide]")
-1
>>> category("CC(C)[N+](C)(CCOC(=O)C1c2ccccc2Oc2ccccc21)C(C)C [Propantheline bromide]")
-1
>>> category("COc1ccc(/C=C/C(=O)Nc2ccccc2C(=O)O)cc1OC [Tranilast]")
-1
>>> category("O=C1[C@H]2CCCC[C@H]2C(=O)N1CCCCN1CCN(c2nsc3ccccc23)CC1 [Perospirone]")
-1

###

- Test system: E. coli TESEC Mtb Alr
- measurement_description: growth (OD600 after 10 h); higher = more growth (less inhibition)
- condition_notes: arabinose 100 nM; compound 0.1 mM; raw OD600 reference: median of DMSO wells 0.413, cell-free background 0.052
Where a name gives a salt, the structure may show the parent alone.
Listed below: growth values for each entry.
readout_type: growth

>>> value_measured("CN(C)CCN1C(=O)c2ccccc2N(C)c2ccccc21 [Dibenzepine hydrochloride]")
0.415
>>> value_measured("N=C(N)N1CCc2ccccc2C1 [Debrisoquin sulfate]")
0.406
>>> value_measured("Cc1cnc(NC(=O)C2=C(O)c3ccccc3S(=O)(=O)N2C)s1")
0.33
>>> value_measured("CCOC(=O)c1ccc(OC(=O)CCCCCNC(=N)N)cc1 [Gabexate mesilate]")
0.396
>>> value_measured("CC(Cc1cccc(C(F)(F)F)c1)NCCOC(=O)c1ccccc1 (stereo not drawn)")
0.411
>>> value_measured("CCN[C@H]1C[C@H](C)S(=O)(=O)c2sc(S(N)(=O)=O)cc21 [Dorzolamide hydrochloride]")
0.433
>>> value_measured("COc1cc([S+](C)[O-])ccc1-c1nc2cccnc2[nH]1 (stereo not drawn)")
0.392
>>> value_measured("CN1C(=O)OC(C)(C)C1=O")
0.423
>>> value_measured("CC(C)c1ccc2oc3nc(N)c(C(=O)O)cc3c(=O)c2c1")
0.0761
>>> value_measured("NS(=O)(=O)c1cc2c(cc1Cl)N=C(CSCc1ccccc1)NS2(=O)=O [Benzthiazide]")
0.405
>>> value_measured("N=C(N)N/N=C/c1c(Cl)cccc1Cl [Guanabenz acetate]")
0.408
>>> value_measured("CC(=O)Nc1c(I)c(C(=O)N[C@H]2C(O)O[C@H](CO)[C@@H](O)[C@@H]2O)c(I)c(N(C)C(C)=O)c1I (stereo partly drawn) [Metrizamide]")
0.403
>>> value_measured("CC(C)NC[C@@H](O)COc1cccc2ccccc12 [(R)-Propranolol hydrochloride]")
0.427
>>> value_measured("CNC1(C)C2CCC(C2)C1(C)C (stereo not drawn) [Mecamylamine hydrochloride]")
0.433
>>> value_measured("CC=C(C)C(=O)OC1C(OC(C)=O)C2(CO)C(O)CC3(C)C(=CCC4C5(C)CCC(OC6OC(C(=O)O)C(OC7OC(CO)C(O)C(O)C7O)C(O)C6OC6OC(CO)C(O)C(O)C6O)C(C)(CO)C5CCC43C)C2CC1(C)C (stereo not drawn)")
0.438
>>> value_measured("COc1ccccc1OCC(O)COC(N)=O (stereo not drawn)")
0.412
>>> value_measured("CCN(CC)CCOC(=O)C(Cc1cccc2ccccc12)CC1CCCO1 (stereo not drawn) [Nafronyl oxalate]")
0.407
>>> value_measured("CN/C(=N\\CCSCc1nc[nH]c1C)NC#N")
0.409

###

- Tested on: E. coli TESEC Mtb Alr
- measurement_description: growth (OD600 after 10 h); higher = more growth (less inhibition)
- condition_notes: arabinose 10000 nM; compound 0.1 mM; raw OD600 reference: median of DMSO wells 0.264, cell-free background 0.041
Structures can show the parent of a compound that is named as a salt.
readout_type: growth

>>> value_measured("Nc1ccccc1S(N)(=O)=O [2-Aminobenzenesulfonamide]")
0.255
>>> value_measured("COc1ccc2c(c1)c(CC(=O)O)c(C)n2C(=O)c1ccc(Cl)cc1")
0.2
>>> value_measured("CCN(CC)CCNC(=O)c1cc(S(C)(=O)=O)ccc1OC [Tiapride hydrochloride]")
0.263
>>> value_measured("C[C@]12CCC(=O)C=C1CC[C@@H]1[C@@H]2C(=O)C[C@@]2(C)[C@H]1CC[C@]2(O)C(=O)CO")
0.237
>>> value_measured("O=P(O)(O)C(Cl)(Cl)P(=O)(O)O [Clodronate]")
0.284

###

- Test system: E. coli TESEC Alr+ wild-type control
- measurement_description: growth (OD600 after 10 h); higher = more growth (less inhibition)
- condition_notes: compound 0.1 mM; raw OD600 reference: median of DMSO wells 0.241, cell-free background 0.041
readout_type: growth

>>> value_measured("NCC[C@H](O)C(=O)N[C@@H]1C[C@H](N)[C@@H](O[C@H]2O[C@H](CN)[C@@H](O)[C@H](O)[C@H]2O)[C@H](O)[C@H]1O[C@H]1O[C@H](CO)[C@@H](O)[C@H](N)[C@H]1O [Amikacin hydrate]")
0.0427
>>> value_measured("CO[C@H]1/C=C/O[C@@]2(C)Oc3c(C)c(O)c4c(O)c(c5c(nc6cc(C)ccn65)c4c3C2=O)NC(=O)/C(C)=C\\C=C\\[C@H](C)[C@H](O)[C@@H](C)[C@@H](O)[C@@H](C)[C@H](OC(C)=O)[C@@H]1C")
0.044
>>> value_measured("Cc1nc(=O)c2cc(CN(C)c3ccc(C(=O)N[C@@H](CCC(=O)O)C(=O)O)s3)ccc2[nH]1")
0.229

###

- Test system: E. coli TESEC Mtb Alr
- measurement_description: growth (OD600 after 10 h); higher = more growth (less inhibition)
- condition_notes: arabinose 1000000 nM; compound 0.1 mM; raw OD600 reference: median of DMSO wells 0.193, cell-free background 0.041
Counter-ions that a name gives are not always drawn.
readout_type: growth

>>> value_measured("C[C@H](N)[C@H](O)c1cccc(O)c1 [Metaraminol bitartrate]")
0.185
>>> value_measured("CN(CCOc1ccc(CC2SC(=O)NC2=O)cc1)c1ccccn1 (stereo not drawn) [Rosiglitazone Hydrochloride]")
0.0847
>>> value_measured("CCCCCCNC(=O)n1cc(F)c(=O)[nH]c1=O")
0.0803
>>> value_measured("Fc1ccc(C(c2ccc(F)cc2)N2CCN(C/C=C/c3ccccc3)CC2)cc1 [Flunarizine dihydrochloride]")
0.0591
>>> value_measured("CC1Cc2ccccc2N1NC(=O)c1ccc(Cl)c(S(N)(=O)=O)c1 (stereo not drawn) [Indapamide]")
0.159
>>> value_measured("CCCCOc1cc(C(=O)NCCN(CC)CC)c2ccccc2n1")
0.154
>>> value_measured("CCOc1ccc(Cc2nccc3cc(OCC)c(OCC)cc23)cc1OCC [Ethaverine hydrochloride]")
0.0659
>>> value_measured("CC(=O)N[C@@H](CC(C)C)C(=O)O")
0.192
>>> value_measured("Cc1c(-c2ccccc2)oc2c(C(=O)OCCN3CCCCC3)cccc2c1=O [Flavoxate hydrochloride]")
0.105
>>> value_measured("O=C(O)CCC(=O)c1ccc(-c2ccccc2)cc1")
0.128
>>> value_measured("COC(=O)C1=C(C)NC(C)=C(C(=O)OCC(C)C)C1c1ccccc1[N+](=O)[O-] (stereo not drawn)")
0.101
>>> value_measured("CCCCNc1ccc(C(=O)OCCOCCOCCOCCOCCOCCOCCOCCOCCOC)cc1 [Benzonatate]")
0.148
>>> value_measured("CCN(CC)CCOCCOC(=O)C1(c2ccccc2)CCCC1 [Carbetapentane citrate]")
0.133
>>> value_measured("C#C[C@]1(O)CC[C@H]2[C@@H]3CCC4=Cc5oncc5C[C@]4(C)[C@H]3CC[C@@]21C")
0.125
>>> value_measured("COc1cc(OC)c(C(=O)CCCN2CCCC2)c(OC)c1 [Buflomedil hydrochloride]")
0.189
>>> value_measured("CC1(C)O[C@@H]2C[C@H]3[C@@H]4CCC5=CC(=O)C=C[C@]5(C)[C@H]4[C@@H](O)C[C@]3(C)[C@]2(C(=O)CO)O1 [Desonide]")
0.15
>>> value_measured("CCCCCN(CCCCC)C(=O)C(CCC(=O)O)NC(=O)c1ccc(Cl)c(Cl)c1 (stereo not drawn) [Lorglumide sodium salt]")
0.0691
>>> value_measured("Cc1ccc(S(=O)(=O)NC(=O)NN2CCCCCC2)cc1 [Tolazamide]")
0.186

Where these numbers come from: the supplement of paper PMC9262897
